Attribution: PubChem BioAssay (NCI)

growth overview
# Tested on: NCI-H522 lung
# protocol text: NCI-60 one-dose screen, 48 h (100 = growth as untreated, 0 = no growth, -100 = all killed)
# condition: 10 µM unless noted
The panel holds about 83,000 compounds, 20% with a hit somewhere; the sample as a whole holds those more often.
Please reply with the bare figure in % and do not write the unit itself.

>>> measured_number("C=C(C)[C@@H]1CC[C@]2(C=O)CC[C@]3(C)[C@H](CC[C@@H]4[C@@]5(C)C/C(=C/c6cccnc6)C(=O)C(C)(C)[C@@H]5CC[C@]43C)[C@@H]12")
72

growth for COc1ccc(-c2cc(-c3c(C)oc4cc5occc5c(OC)c4c3=O)nc(N)c2C#N)cc1OC is 47.1

growth for CCC(c1ccc(OC)cc1)C(CC)c1ccc(O)c(CN2CCCCC2)c1 (centres undefined) is 72.3

growth for O=[N+]([O-])c1ccc(/C=N\Nc2ccccc2)cc1 is 61

growth for O=C(O)/C(=C/c1ccc(O)cc1)c1ccccc1 is 95

* * *

# Tested on: M14 melanoma
# protocol text: NCI-60 one-dose screen, 48 h (100 = growth as untreated, 0 = no growth, -100 = all killed)
# condition: 10 µM unless noted
Compounds without any hit were thinned out: in the full panel of roughly 83,000, 20% have a hit. Active and inactive are the calls of the source. Rule for the calls: active = growth percent below 10; inactive = the rest.
readout type: growth

>>> result("N#CC1=C(N)Oc2c(sc3c(F)cccc23)C1c1ccc(Cl)cc1 (stereo not drawn)")
"-26.1% (active)"
>>> result("Cn1cc(-c2csc(-c3cn(CCNC(=O)OC(C)(C)C)c4ccc(F)cc34)n2)c2cccnc21")
"52.3% (inactive)"
>>> result("Cn1cc(-c2nc(-c3c[nH]c4ncccc34)cs2)c2cc(F)ccc21")
"20.5% (inactive)"
>>> result("Nc1nc(N)c2nc3c(nc2n1)CCCCCCCCCC3")
"33.1% (inactive)"
>>> result("COc1cc(-c2cc(-c3nc4ccc(F)cc4[nH]3)[nH]n2)cc(OC)c1OC")
"21.5% (inactive)"
>>> result("CCN1CCN(C(=O)[C@]23CCC(C)(C)C[C@H]2C2=CC[C@@H]4[C@@]5(C)CC/C(=N/O)C(C)(C)[C@@H]5CC[C@@]4(C)[C@]2(C)CC3)CC1")
"65.6% (inactive)"
>>> result("CC(C)(C)c1cc(-n2c(-c3ccc(Cl)cc3)nc3cc(C(=O)Nc4ccc(Cl)cc4)ccc32)n[nH]1")
"62.7% (inactive)"
>>> result("C/C(=N/NC(N)=S)C(=O)O")
"97.4% (inactive)"

growth for Nc1c(C(=O)Nc2c(Cl)cccc2Cl)sc2nc3c(cc12)C(=O)CCC3 is 12.1% (inactive)

growth for Brc1ccc(Cn2nnnc2-c2ccn(-c3ccccc3)n2)cc1 is 83.4% (inactive)

growth for O=C(NC1=CC(=O)c2ccccc2C1=O)c1ccccc1 is 33.9% (inactive)

growth for COc1ccc(C2C(C#N)=C(N)Oc3c2sc2c(F)cccc32)cc1 (stereo not drawn) is -15.6% (active)

growth for COc1cc(/C=N/Nc2ncnc3c2c(C)nn3-c2ccc(F)cc2)ccc1O is 102% (inactive)

growth for C#Cc1cccc(NC(=O)C2CCCN(C(=O)CCl)C2)c1 (stereo not drawn) is 20.6% [8.25 µM] (inactive)

growth for O=C1CNCCN1 is 105% (inactive)

growth for COc1cc2c(cc1-c1c(C)noc1C)ncc1nc(C3CCCCC3)n([C@@H](C)COC(F)F)c12 is 34.7% (inactive)

* * *

# Test system: MOLT-4 leukemia
# protocol text: NCI-60 one-dose screen, 48 h (100 = growth as untreated, 0 = no growth, -100 = all killed)
# condition: 10 µM unless noted
The panel holds about 83,000 compounds, 20% with a hit somewhere; the sample as a whole holds those more often.
Binary call on growth with cut-off 70%: strictly below means Criterion met, and equality or higher means Criterion not met.

Example entries begin here.
>>> category("COc1cc2ncnc(Nc3ccc(OCc4cccc(F)c4)c(Cl)c3)c2cc1NC(=O)C1CCCC1")
"Criterion not met"
>>> category("CC1(C)CC[C@]2(CO)CC[C@]3(C)C(=CC[C@@H]4[C@@]5(C)CC[C@H](NCO)C(C)(C)[C@@H]5CC[C@]43C)[C@@H]2C1")
"Criterion met"
>>> category("O=S(=O)(NCCNc1cc(-c2cn(-c3ccccc3)nc2-c2cccc(O)c2)ccn1)c1cccc(F)c1")
"Criterion met"
>>> category("Cc1cc(C=O)c(C)c2c1[nH]c1ccccc12")
"Criterion not met"

Hi there! Is growth for Cn1cc(-c2csc(-c3cn(C(=O)OC(C)(C)C)c4ccccc34)n2)c2cccnc21 below 70%, do you know?
Criterion met

Hi there! Is growth for COc1ccc(OCC(CO)N2CCN(c3ccccc3)CC2)cc1 (centres undefined) below 70%, do you know?
Criterion not met

Hi there! Is growth for COc1cc2ncnc(Nc3ccc(Oc4ccnc(C)c4)c(C)c3)c2cc1NC(=O)CC1CCSS1 (centres undefined) below 70%, do you know?
Criterion met

Hi there! Is growth for Cc1cc2nc3c4cc([N+](=O)[O-])cc([N+](=O)[O-])c4n(CCN(C)C)c3nc2cc1C below 70%, do you know?
Criterion met

* * *

# System: SF-539 CNS
# protocol text: NCI-60 one-dose screen, 48 h (100 = growth as untreated, 0 = no growth, -100 = all killed)
# condition: 10 µM unless noted
Compounds without any hit were thinned out: in the full panel of roughly 83,000, 20% have a hit. The source made the active and inactive calls. Rule for the calls: active = growth percent below 10; inactive = the rest.
readout type: growth

Worked cases, answers included:
>>> result("O=C1CCN2C(=O)Nc3ccccc3C2C1 (stereo unspecified)")
"95.5% (inactive)"
>>> result("C/C(=N\\Nc1ccc2ccccc2n1)c1ccccn1")
"-44.2% (active)"
>>> result("CCCCCCCCNc1cccc2c1C(=O)c1ccccc1C2=O")
"121% (inactive)"

The value of growth recorded for CNC(=O)c1cc(Oc2ccc3nc(NC(=O)Nc4ccc(Cl)cc4)sc3c2)ccn1 when tested on SF-539 CNS reads 83.5% (inactive)

The value of growth recorded for CCCCCC1CCCCN1C(=O)OCC (stereo unspecified) when tested on SF-539 CNS reads 107% (inactive)

The value of growth recorded for O=S(=O)(NCCCNc1cc(-c2cn(-c3ccccc3)nc2-c2cccc(O)c2)ccn1)c1ccc(F)cc1 when tested on SF-539 CNS reads 38.8% (inactive)

* * *

# Test system: MOLT-4 leukemia
# protocol text: NCI-60 one-dose screen, 48 h (100 = growth as untreated, 0 = no growth, -100 = all killed)
# condition: 10 µM unless noted
The panel holds about 83,000 compounds, 20% with a hit somewhere; the sample as a whole holds those more often.
Mark True for reported growth of 30% or greater; mark False for anything smaller.

Example entries begin here.
>>> category("Clc1cc(Cl)cc(Nc2ccc3c(OCCCN4CCOCC4)cccc3n2)c1")
"False"
>>> category("Cn1cccc1/C=C1/SC(=S)N(CCc2ccc(O)cc2)C1=O")
"True"
>>> category("CCOC(=O)N1CCN(CCCCOc2ccc(C(C)(C)CC)cc2)CC1")
"True"

Hi team, for C=C(C)[C@@H]1CC[C@]2(C(=O)O)CC[C@]3(C)[C@H](CC[C@@H]4[C@@]5(C)C/C(=C/c6ccc(OC)cc6)C(=O)C(C)(C)[C@@H]5CC[C@]43C)[C@@H]12 , is the recorded growth at or above 30%?
False

Hi team, for CCCCN1CCCCn2c1nc1c2c(=O)n(C)c(=O)n1C , is the recorded growth at or above 30%?
True

* * *

# Test system: OVCAR-5 ovarian
# protocol text: NCI-60 one-dose screen, 48 h (100 = growth as untreated, 0 = no growth, -100 = all killed)
# condition: 10 µM unless noted
This is part of a sample that, as a whole, favours compounds with a hit. Of some 83,000 tested, about 20% had one in any assay.
readout type: growth (%)
Please reply with the bare figure in % and do not write the unit itself.

Worked cases, answers included:
>>> measured_number("S=c1[nH]nc2ccccn12")
108
>>> measured_number("CC(=O)c1c(C)[nH]c(-c2nc3ccc(N4CCN(C)CC4)cc3[nH]2)c1-c1ccc(OCC2CCOCC2)cc1")
43.8
>>> measured_number("Cn1cc(-c2csc(-c3cn(CCN)c4ccc(Br)cc34)n2)c2cccnc21")
76.5
>>> measured_number("N#CC1C(=N)Cc2ccccc2-c2ccccc21 (configuration not stated)")
88.3
>>> measured_number("COc1ccc2nc(-c3cc(-c4cc(OC)c(OC)c(OC)c4)n[nH]3)[nH]c2c1")
58.8
>>> measured_number("COc1ccc2c(c1)C/C(=C\\c1cc(-c3ccc4c(c3)OCO4)n[nH]1)C2=O")
98.3

growth for O=c1c(CNc2ccc(S(=O)(=O)Nc3ncccn3)cc2)coc2ccccc12 is 96.3

growth for CCSc1sc(-c2ccc(C)cc2)nc1[P+](c1ccccc1)(c1ccccc1)c1ccccc1 is 18.3

growth for Cc1cc(N(CCCNc2ccnc3cc(Cl)ccc23)Cc2ccco2)nc(N2CCN(C)CC2)n1 is 73.9

growth for N#C/C(=C\c1ccc(-c2ccc(Br)cc2)o1)c1nc(-c2cccs2)cs1 is 95.6

growth for Cc1ccsc1-c1ccc2c(c1)COC2(CCCN(C)C)c1ccc(F)cc1 (configuration not stated) is 72.1

growth for N#Cc1cnc2cc(OC[C@@H](O)CO)c(NC(=O)C3CCCC3)cc2c1Nc1ccc(OCc2cccc(F)c2)c(Cl)c1 is 86.1
